Attribution: patent US20180186742A1

Tested on: Puccinia triticina
Procedure summary: Wheat brown rust (PUCCRT), disease control on wheat seedlings
Format: in vivo
Applied conditions: 72 h, low volume application at 121.5 g/H, 3 Day Curative, read-out: PUCCRT disease control, 3DC, LV activity
pest or weed control at 121.5 g/ha by entry:

Solved entries:
- Compound: "COc1ccnc(C(=O)N[C@@H](C)C(=O)O[C@@H](C)[C@H](c2ccc(F)cc2C)C(C)C)c1OCOC(C)=O"
  pest or weed control at 121.5 g/ha: "> 80%"
- Compound: "COc1cc(F)ccc1[C@@H](C1CCC1)[C@H](C)OC(=O)[C@H](C)NC(=O)c1nccc(OC)c1OC(C)=O"
  pest or weed control at 121.5 g/ha: "< 80%"
- Compound: "CCC(C)[C@@H](c1ccc(F)cc1C)[C@H](C)OC(=O)[C@H](C)NC(=O)c1nccc(OC)c1OC(C)=O (stereo partly drawn)"
  pest or weed control at 121.5 g/ha: "< 80%"
- Compound: "COc1ccnc(C(=O)N[C@@H](C)C(=O)O[C@@H](C)[C@@H](c2ccc(C)cc2C)C2CCCCC2)c1OCOC(C)=O"
  pest or weed control at 121.5 g/ha: "< 0%"
- Compound: "COc1ccnc(C(=O)N[C@@H](C)C(=O)O[C@@H](C)[C@H](c2ccc(F)cc2)C2CC2)c1OCOC(C)=O"
  pest or weed control at 121.5 g/ha: "> 80%"

Input: What value of measured pest or weed control at 121.5 g/ha is listed for `COc1cc(F)ccc1[C@H](C(C)C)[C@H](C)OC(=O)[C@H](C)NC(=O)c1nccc(OC)c1OCOC(C)=O` ?
Output: > 80%

Input: What value of measured pest or weed control at 121.5 g/ha is listed for `COc1cc[n+]([O-])c(C(=O)N[C@@H](C)C(=O)O[C@@H](C)[C@H](c2ccc(F)cc2C)C(C)C)c1O` ?
Output: < 80%

Input: What value of measured pest or weed control at 121.5 g/ha is listed for `COCCC(=O)Oc1c(OC)ccnc1C(=O)N[C@@H](C)C(=O)O[C@@H](C)[C@H](c1ccc(OC)c(F)c1)C(C)C` ?
Output: < 80%

Input: What value of measured pest or weed control at 121.5 g/ha is listed for `CCC(CC)[C@H](c1ccc(F)cc1C)[C@H](C)OC(=O)[C@H](C)NC(=O)c1nccc(OC)c1OC(C)=O` ?
Output: < 0%

* * *

pest or weed control at 121.5 g/ha by entry:
Test system: Puccinia triticina
Procedure summary: Wheat brown rust (PUCCRT), disease control on wheat seedlings
Type: in vivo
Applied conditions: 72 h, low volume application at 121.5 g/H, 3 Day Curative, read-out: PUCCRT disease control, 3DC, LV activity

Solved entries:
- Compound: "COc1ccnc(C(=S)N[C@@H](C)C(=O)O[C@@H](C)[C@H](c2ccc(F)cc2C)C(C)C)c1OC(C)=O"
  Experimental target: "Puccinia triticina"
  Recorded result: "> 80%"
- Compound: "COc1cc(F)ccc1[C@H](C1CCC1)[C@H](C)OC(=O)[C@H](C)NC(=O)c1nccc(OC)c1OC(C)=O"
  Experimental target: "Puccinia triticina"
  Recorded result: "< 80%"
- Compound: "COc1ccnc(C(=O)N[C@@H](C)C(=O)O[C@@H](C)[C@@H](c2ccc(F)cc2C)C2CCC2)c1OC(C)=O"
  Experimental target: "Puccinia triticina"
  Recorded result: "< 80%"
- Compound: "COc1ccnc(C(=O)N[C@@H](C)C(=O)O[C@@H](C)[C@@H](c2ccccc2)C2CCCC2)c1OCOC(C)=O"
  Experimental target: "Puccinia triticina"
  Recorded result: "< 80%"
- Compound: "CCC(CC)[C@@H](c1ccccc1)C(C)OC(=O)[C@H](C)NC(=O)c1nccc(OC)c1OCOC(C)=O (stereo partly shown)"
  Experimental target: "Puccinia triticina"
  Recorded result: "> 80%"

Input: What value of measured pest or weed control at 121.5 g/ha is listed for `COc1ccnc2c(=O)n([C@@H](C)C(=O)O[C@@H](C)[C@@H](c3ccc(C)cc3C)C3CCCC3)c(=O)oc12` ?
Output: < 0%

Input: What value of measured pest or weed control at 121.5 g/ha is listed for `COc1ccnc(C(=O)N[C@@H](C)C(=O)O[C@@H](C)[C@H](c2ccc(F)cc2C)C2CCCCC2)c1OC(C)=O` ?
Output: < 80%
